Provide the recorded pKd for the entries that follow.
target: T1, human ICAM-1 (immobilized, SPR) (human, UniProt P05362 28-480, limits assumed); assay: SPR, I domain over immobilized human ICAM-1
T1 construct: Form immobilized on the SPR chip is not described; also called Intercellular adhesion molecule-1; CD54
T1 sequence (P05362 28-480 limits assumed): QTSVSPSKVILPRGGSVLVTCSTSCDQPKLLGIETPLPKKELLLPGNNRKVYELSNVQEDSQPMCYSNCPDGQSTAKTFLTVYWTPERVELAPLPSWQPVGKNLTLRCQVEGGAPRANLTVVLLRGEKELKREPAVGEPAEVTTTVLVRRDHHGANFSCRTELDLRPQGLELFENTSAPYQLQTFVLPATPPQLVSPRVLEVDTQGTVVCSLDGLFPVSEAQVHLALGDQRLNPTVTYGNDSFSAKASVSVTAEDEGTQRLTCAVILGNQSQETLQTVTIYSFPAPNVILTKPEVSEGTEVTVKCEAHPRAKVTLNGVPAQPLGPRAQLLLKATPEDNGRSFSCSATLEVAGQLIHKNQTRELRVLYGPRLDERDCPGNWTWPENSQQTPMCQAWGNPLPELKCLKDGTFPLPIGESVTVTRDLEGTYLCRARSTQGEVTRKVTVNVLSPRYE
// scale note: pKd = -log10(conc_M); give the bare number

Query: Note down pKd recorded for F265S/F292G (DM) LFA-1 I domain (receptor) GNVDLVFLFDGSMSLQPDEFQKILDFMKDVMKKLSNTSYQFAAVQFSTSYKTEFDFSDYVKWKDPDALLKHVKHMLLLTNTFGAINYVATEVFREELGARPDATKVLIIITDGEATDSGNIDAAKDIIRYIIGIGKHSQTKESQETLHKFASKPASEFVKILDTGEKLKDLFTELQKKIYVIEG
Result: 8.22

Query: Note down pKd recorded for Wild-type (WT) LFA-1 I domain (receptor, I domain of the αL subunit of human LFA-1; also called WT I domain; wild-type human I domain) GNVDLVFLFDGSMSLQPDEFQKILDFMKDVMKKLSNTSYQFAAVQFSTSYKTEFDFSDYVKWKDPDALLKHVKHMLLLTNTFGAINYVATEVFREELGARPDATKVLIIITDGEATDSGNIDAAKDIIRYIIGIGKHFQTKESQETLHKFASKPASEFVKILDTFEKLKDLFTELQKKIYVIEG
Result: 2.82
